# pIC50 per entry for Acetylcholinesterase (Electrophorus electricus)
Note on pIC50: it is the negative log10 of concentration, concentration in mol/L.

In plain terms, COc1c(Br)cc(C(=O)OCC[N+](C)(C)C)cc1Br.[Cl-] has a documented pIC50 of 3.98

In plain terms, COc1c(Br)cc(CC(=O)NCCCCC[N+](C)(C)C)cc1Br.[I-] has a documented pIC50 of 4.44

###

Provide the reported pKi of each item.
- Target of assay: Acetylcholinesterase (Electrophorus electricus, UniProt O42275)
- Sequence (O42275 whole entry): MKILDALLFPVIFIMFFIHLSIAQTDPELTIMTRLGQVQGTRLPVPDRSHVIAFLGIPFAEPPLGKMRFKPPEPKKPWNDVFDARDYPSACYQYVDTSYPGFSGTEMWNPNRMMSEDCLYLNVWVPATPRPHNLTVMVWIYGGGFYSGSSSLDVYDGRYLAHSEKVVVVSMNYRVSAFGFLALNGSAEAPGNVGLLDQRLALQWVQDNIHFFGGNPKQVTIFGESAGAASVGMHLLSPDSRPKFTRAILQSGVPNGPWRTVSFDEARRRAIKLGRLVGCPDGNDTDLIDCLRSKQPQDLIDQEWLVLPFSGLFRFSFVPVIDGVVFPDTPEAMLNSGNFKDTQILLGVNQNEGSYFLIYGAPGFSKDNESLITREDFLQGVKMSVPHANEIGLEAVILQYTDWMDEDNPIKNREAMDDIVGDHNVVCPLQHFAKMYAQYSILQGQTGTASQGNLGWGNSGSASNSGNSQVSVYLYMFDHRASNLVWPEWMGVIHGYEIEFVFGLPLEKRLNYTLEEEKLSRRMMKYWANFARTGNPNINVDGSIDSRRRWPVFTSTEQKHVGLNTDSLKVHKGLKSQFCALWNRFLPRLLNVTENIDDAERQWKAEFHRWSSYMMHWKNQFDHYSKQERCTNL
Note on pKi: it is the negative log10 of concentration, concentration in mol/L.

Observed pKi on Acetylcholinesterase (Electrophorus electricus, UniProt O42275), entry COc1c(Br)cc(C(=O)OCC[N+](C)(C)C)cc1Br.[Cl-] , equals 4.05

Observed pKi on Acetylcholinesterase (Electrophorus electricus, UniProt O42275), entry COc1c(Br)cc(CC(=O)NCCCCC[N+](C)(C)C)cc1Br.[I-] , equals 4.70
